The values you see were collected from patent US10092648B2.

Catalogue of substances with associated Sensitivity index Si/Colon
Test system: male C57BL mice
Assay: In vivo stimulation of intestinal growth, 200 nmol/kg (Example 11)
Conditions: 200 nmol/kg s.c. once daily for 3 days; relative to 1559
Experimental: The ability of further compounds to selectively stimulate small intestinal mass, relative to colon mass was determined in male C57BL mice. A similar protocol was used to that described above in Example 10 except that 200 nmol/kg of each compound was administered per day. Thus, individual groups (n=6-10) of mice were given 200 nmol/kg of each compound, s.c, once daily for three consecutive days. […]

- Substance: "H-HGEGSFSDELKTILEKLAAKDFIKWLIKTKITDKKKKKK-NH2 [ZP2395]"
  Sensitivity index Si/Colon: 1.01
- Substance: "H-HGEGSFSDELATILESLAAADFIAWLIATKITDKKKKKK-NH2 [ZP2415]"
  Sensitivity index Si/Colon: 1.00
- Substance: "H-HGEGSFSDELSTILEALAASDFISWLISTKITDKKKKKK-NH2 [ZP2385]"
  Sensitivity index Si/Colon: 1.16
- Substance: "H-HGEGSFSDELLTILELLAASDFISWLISTKITDKKKKKK-NH2 [ZP2394]"
  Sensitivity index Si/Colon: 1.09
- Substance: "H-HGEGSFSDELETILEELAAEDFIEWLIETKITDKKKKKK-NH2 [ZP2378]"
  Sensitivity index Si/Colon: 0.94

----------
Collected EC50 values appear next to each entry.
Target: hGLP-2 receptor (Homo sapiens, UniProt O95838)
Construct: expressed in transfected cells; host or cells: BHK-21 (C13) cells, transient transfection with Lipofectamine 2000
Sequence (O95838 whole entry): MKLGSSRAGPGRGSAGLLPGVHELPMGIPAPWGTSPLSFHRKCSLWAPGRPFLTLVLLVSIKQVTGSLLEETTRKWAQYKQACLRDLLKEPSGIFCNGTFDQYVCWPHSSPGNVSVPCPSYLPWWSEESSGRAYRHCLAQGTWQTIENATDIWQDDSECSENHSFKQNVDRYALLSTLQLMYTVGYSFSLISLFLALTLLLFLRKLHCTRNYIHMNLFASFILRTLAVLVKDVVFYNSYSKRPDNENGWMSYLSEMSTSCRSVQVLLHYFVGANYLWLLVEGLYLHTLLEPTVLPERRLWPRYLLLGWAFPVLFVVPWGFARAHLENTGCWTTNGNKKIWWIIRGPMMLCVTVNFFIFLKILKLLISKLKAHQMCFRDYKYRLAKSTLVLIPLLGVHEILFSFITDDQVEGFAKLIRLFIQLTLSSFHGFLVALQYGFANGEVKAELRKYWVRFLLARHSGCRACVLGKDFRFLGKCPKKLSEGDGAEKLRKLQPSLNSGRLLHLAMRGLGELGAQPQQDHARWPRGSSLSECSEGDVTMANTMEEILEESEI
Assay: In vitro screening for agonism on the GLP-2 receptor recombinantly expressed in BHK-21 cells (CRE-luciferase reporter)
Type: cell-based
Details: BHK21 cells transiently transfected with GLP-2 receptor and CRE-luciferase; 10 fM to 10 nM; read-out: pEC50 (converted)
Readout name: EC50

- Substance: "H-HGEGSFSDELKTILESLAAADFIEWLIQTKITD-NH2 [ZP2269]"
  Study system: "hGLP-2 receptor (Homo sapiens, UniProt O95838)"
  Readout name: "EC50"
  Result: "0.0912 nM"
- Substance: "H-HGEGSFSDELETILEELAAEDFIEWLIETKITD-NH2 [ZP2266]"
  Study system: "hGLP-2 receptor (Homo sapiens, UniProt O95838)"
  Readout name: "EC50"
  Result: "0.558 nM"
- Substance: "H-HGEGSFSDELSTILESLAASDFISWLISTKITD-NH2 [ZP2263]"
  Study system: "hGLP-2 receptor (Homo sapiens, UniProt O95838)"
  Readout name: "EC50"
  Result: "0.0145 nM"
- Substance: "H-HGEGSFSDELATILESLAAADFISWLIATKITD-NH2 [ZP2272]"
  Study system: "hGLP-2 receptor (Homo sapiens, UniProt O95838)"
  Readout name: "EC50"
  Result: "0.00537 nM"
- Substance: "H-HGEGSFSDELSTILESLAAADFIAWLIATKITD-NH2 [ZP2267]"
  Study system: "hGLP-2 receptor (Homo sapiens, UniProt O95838)"
  Readout name: "EC50"
  Result: "0.0135 nM"
- Substance: "H-HGEGSFSDELATILEALAAADFIAWLIATKITD-NH2 [ZP2264]"
  Study system: "hGLP-2 receptor (Homo sapiens, UniProt O95838)"
  Readout name: "EC50"
  Result: "0.00316 nM"

----------
SI-BW, compared to 1559 in % values, listed per item
System: male C57BL mice
Experiment: In vivo stimulation of intestinal growth, 200 nmol/kg (Example 11)
Settings: 200 nmol/kg s.c. once daily for 3 days

- Substance: "H-HGEGSFSDELATILEALAASDFIAWLIATKITD-NH2 [ZP2417]"
  SI-BW, compared to 1559 in %, %: 119
- Substance: "H-HGEGSFSDELATILESLAASDFISWLISTKITD-NH2 [ZP2399]"
  SI-BW, compared to 1559 in %, %: 119
- Substance: "H-HGEGSFSDELSTILEALAAADFIAWLIATKITD-NH2 [ZP2420]"
  SI-BW, compared to 1559 in %, %: 112
- Substance: "H-HGEGSFSDELATILEALAASDFISWLISTKITDKKKKKK-NH2 [ZP2381]"
  SI-BW, compared to 1559 in %, %: 123
- Substance: "H-HGEGSFSDELKTILEKLAAKDFIKWLIKTKITDKKKKKK-NH2 [ZP2395]"
  SI-BW, compared to 1559 in %, %: 98
- Substance: "H-HGEGSFSDELATILEALAAADFIAWLISTKITD-NH2 [ZP2397]"
  SI-BW, compared to 1559 in %, %: 122
- Substance: "H-HGEGSFSDELNTILESLAASDFISWLISTKITDKKKKKK-NH2 [ZP2382]"
  SI-BW, compared to 1559 in %, %: 103
- Substance: "H-HGEGSFSDELLTILELLAAADFIAWLIATKITDKKKKKK-NH2 [ZP2412]"
  SI-BW, compared to 1559 in %, %: 94
- Substance: "H-HGEGSFSDELATILESLAAADFIAWLIATKITDKKKKKK-NH2 [ZP2415]"
  SI-BW, compared to 1559 in %, %: 106
- Substance: "H-HGEGSFSDELLTILELLAALDFIAWLIATKITDKKKKKK-NH2 [ZP2416]"
  SI-BW, compared to 1559 in %, %: 89
- Substance: "H-HGEGSFSDELSTILEALAAADFIAWLIATKITDKKKKKK-NH2 [ZP2404]"
  SI-BW, compared to 1559 in %, %: 114
- Substance: "H-HGEGSFSDELLTILELLAASDFISWLISTKITD-NH2 [ZP2400]"
  SI-BW, compared to 1559 in %, %: 106
- Substance: "H-HGEGSFSDELATILESLAASDFISWLISTKITDKKKKKK-NH2 [ZP2386]"
  SI-BW, compared to 1559 in %, %: 113
- Substance: "H-HGEGSFSDELETILEELAAEDFIEWLIETKITDKKKKKK-NH2 [ZP2378]"
  SI-BW, compared to 1559 in %, %: 91
- Substance: "H-HGEGSFSDELKTILESLAAADFIEWLIQTKITDKKKKKK-NH2 [ZP2379]"
  SI-BW, compared to 1559 in %, %: 88
- Substance: "H-HGEGSFSDELSTILEALAASDFISWLISTKITDKKKKKK-NH2 [ZP2385]"
  SI-BW, compared to 1559 in %, %: 110
- Substance: "H-HGEGSFSDELATILEALAAADFISWLIATKITD-NH2 [ZP2418]"
  SI-BW, compared to 1559 in %, %: 117
- Substance: "H-HGEGSFSDELFTILEFLAASDFISWLISTKITDKKKKKK-NH2 [ZP2396]"
  SI-BW, compared to 1559 in %, %: 104
- Substance: "H-HGEGSFSDELATILEALAAADFIAWLIATKITDKKKKKK-NH2 [ZP2402]"
  SI-BW, compared to 1559 in %, %: 110
- Substance: "H-HGEGSFSDELLTILELLAALDFILWLILTKITDKKKKKK-NH2 [ZP2424]"
  SI-BW, compared to 1559 in %, %: 86

----------
Overview of recorded Colon-BW, compared to 1559 in % for various substances
System: male C57BL mice
Assay: In vivo stimulation of intestinal growth, 200 nmol/kg (Example 11)
Details: 200 nmol/kg s.c. once daily for 3 days
Description: The ability of further compounds to selectively stimulate small intestinal mass, relative to colon mass was determined in male C57BL mice. A similar protocol was used to that described above in Example 10 except that 200 nmol/kg of each compound was administered per day. Thus, individual groups (n=6-10) of mice were given 200 nmol/kg of each compound, s.c, once daily for three consecutive days. […]

- Substance: "H-HGEGSFSDELATILEALAASDFIAWLIATKITD-NH2 [ZP2417]"
  Colon-BW, compared to 1559 in % [%]: 106
- Substance: "H-HGEGSFSDELATILEALAAADFIAWLISTKITD-NH2 [ZP2397]"
  Colon-BW, compared to 1559 in % [%]: 101
- Substance: "H-HGEGSFSDELSTILESLAAADFIAWLIATKITDKKKKKK-NH2 [ZP2403]"
  Colon-BW, compared to 1559 in % [%]: 109

----------
Test system: male C57BL mice
Assay: In vivo stimulation of intestinal growth, 200 nmol/kg (Example 11)
Settings: 200 nmol/kg s.c. once daily for 3 days; relative to 1559
The threshold is inclusive: Sensitivity index Si/Colon of exactly 1 counts as class 1; values below receive class 0.

- Substance: "H-HGEGSFSDELATILEALAAADFIAWLIATKITDKKKKKK-NH2 [ZP2402]"
  Study system: "male C57BL mice"
  Label value: "class 0"
- Substance: "H-HGEGSFSDELATI LEALAASDFIAWLIATKITDKKKKKK-NH2 [ZP2423]"
  Study system: "male C57BL mice"
  Label value: "class 1"
- Substance: "H-HGEGSFSDELLTILELLAALDFIAWLIATKITDKKKKKK-NH2 [ZP2416]"
  Study system: "male C57BL mice"
  Label value: "class 0"
- Substance: "H-HGEGSFSDELLTILELLAALDFILWLILTKITDKKKKKK-NH2 [ZP2424]"
  Study system: "male C57BL mice"
  Label value: "class 0"
- Substance: "H-HGEGSFSDELATILEALAASDFISWLISTKITDKKKKKK-NH2 [ZP2381]"
  Study system: "male C57BL mice"
  Label value: "class 1"
- Substance: "H-HGEGSFSDELLTILELLAAADFIAWLIATKITDKKKKKK-NH2 [ZP2412]"
  Study system: "male C57BL mice"
  Label value: "class 0"
- Substance: "H-HGEGSFSDELSTILEALAASDFISWLISTKITD-NH2 [ZP2398]"
  Study system: "male C57BL mice"
  Label value: "class 1"
- Substance: "H-HGEGSFSDELFTILEFLAASDFISWLISTKITD-NH2 [ZP2401]"
  Study system: "male C57BL mice"
  Label value: "class 1"
- Substance: "H-HGEGSFSDELSTILESLAASDFISWLISTKITDKKKKKK-NH2 [ZP2380]"
  Study system: "male C57BL mice"
  Label value: "class 1"
- Substance: "H-HGEGSFSDELATILEALAAADFISWLIATKITDKKKKKK-NH2 [ZP2411]"
  Study system: "male C57BL mice"
  Label value: "class 1"
- Substance: "H-HGEGSFSDELSTILEALAAADFIAWLIATKITD-NH2 [ZP2420]"
  Study system: "male C57BL mice"
  Label value: "class 1"
- Substance: "H-HGEGSFSDELKTILESLAAADFIEWLIQTKITDKKKKKK-NH2 [ZP2379]"
  Study system: "male C57BL mice"
  Label value: "class 0"
- Substance: "H-HGEGSFSDELATILEALAASDFIAWLIATKITD-NH2 [ZP2417]"
  Study system: "male C57BL mice"
  Label value: "class 1"
- Substance: "H-HGEGSFSDELATILEALAAADFIAWLISTKITDKKKKKK-NH2 [ZP2384]"
  Study system: "male C57BL mice"
  Label value: "class 1"
- Substance: "H-HGEGSFSDELATILEALAAADFISWLIATKITD-NH2 [ZP2418]"
  Study system: "male C57BL mice"
  Label value: "class 1"
